# kinact/KI listing for each entry below
Biological target: PADs 1–4
Assay: kinact/KI determination with purified enzyme, all PADs tested
Format: biochemical
Conditions: for all of the PADs tested (PADs 1–4)

Below, 2 molecules whose answers are already recorded.
>>> reported("N=C(CCl)NCCC[C@@H](NC(=O)c1ccccc1)C(=O)O [D-Cl-amidine-OH]")
"< 3.83 M⁻¹ s⁻¹"
>>> reported("N=C(CCl)NCCC[C@@H](NC(=O)c1ccccc1)C(=O)NCC(=O)O [D-Cl-amidine-Gly]")
"< 3.83 M⁻¹ s⁻¹"

Query :: Write down measured kinact/KI (PADs 1–4) for this molecule. N=C(CCl)NCC[C@@H](NC(=O)c1ccccc1)C(N)=O [D-Cl2-amidine]
Result :: < 2.5 M⁻¹ s⁻¹

Query :: Write down measured kinact/KI (PADs 1–4) for this molecule. N=C(CCl)NCCCC[C@@H](NC(=O)c1ccccc1)C(N)=O [D-Cl4-amidine]
Result :: < 2.5 M⁻¹ s⁻¹
